# testedOn: T1, DLG3_2, Q92796
# T1 sequence (Q92796 221-321, limits assumed, looked up): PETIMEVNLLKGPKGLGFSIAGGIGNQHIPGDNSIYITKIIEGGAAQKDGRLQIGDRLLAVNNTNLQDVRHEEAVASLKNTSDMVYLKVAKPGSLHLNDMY
# assayMethodText: holdup assay
# Design: key: below the threshold = too weak to quantify, mostly under pKd 3.1 to 4
# conditionInfo: plain residues with an end cap or a label only (N-terminal biotin on a linker: ado-ado)

# binder, pKd
data = [
    ("GTGYDRKDYV [CLDN3, O15551]", "below the threshold"),
    ("LAHVKHKEQI [AQP3, Q92482]", "below the threshold"),
    ("LKDDELKTKL [SLCO1A2, P46721]", "below the threshold"),
]
